Taken from the supplement of paper PMC11246515.

This section presents sequences with their documented total protein half-life in vivo values.
- assay-method-text: total protein half-life in vivo (active degradation + dilution); higher = more stable protein
- conditions-used: wild type E. coli NCM3722; growth: C-lim chemostat; doubling time 3 h
The reply should be a number in h, with the unit left off.

Sample records with total protein half-life in vivo:
ordered-residues: MTLEWWFAYLLTSIILSLSPGSGAINTMTTSLNHGYRGAVASIAGLQTGLAIHIVLVGVGLGTLFSRSVIAFEVLKWAGAAYLIWLGIQQWRAAGAIDLKSLASTQSRRHLFQRAVFVNLTNPKSIVFLAALFPQFIMPQQPQLMQYIVLGVTTIVVDIIVMIGYATLAQRIALWIKGPKQMKALNKIFGSLFMLVGALLASARHA [P0AG34]
total protein half-life in vivo (h): 0.913
--
ordered-residues: MTWLPLNPIPLKDRVSMIFLQYGQIDVIDGAFVLIDKTGIRTHIPVGSVACIMLEPGTRVSHAAVRLAAQVGTLLVWVGEAGVRVYASGQPGGARSDKLLYQAKLALDEDLRLKVVRKMFELRFGEPAPARRSVEQLRGIEGSRVRATYALLAKQYGVTWNGRRYDPKDWEKGDTINQCISAATSCLYGVTEAAILAAGYAPAIGFVHTGKPLSFVYDIADIIKFDTVVPKAFEIARRNPGEPDREVRLACRDIFRSSKTLAKLIPLIEDVLAAGEIQPPAPPEDAQPVAIPLPVSLGDAGHRSS
total protein half-life in vivo (h): 3.48

Next sequence, please.
Reported total protein half-life in vivo for MATYLIGDVHGCYDELIALLHKVEFTPGKDTLWLTGDLVARGPGSLDVLRYVKSLGDSVRLVLGNHDLHLLAVFAGISRNKPKDRLTPLLEAPDADELLNWLRRQPLLQIDEEKKLVMAHAGITPQWDLQTAKECARDVEAVLSSDSYPFFLDAMYGDMPNNWSPELRGLGRLRFITNAFTRMRFCFPNGQLDMYSKESPEEAPAPLKPWFAIPGPVAEEYSIAFGHWASLEGKGTPEGIYALDTGCCWGGTLTCLRWEDKQYFVQPSNRHKDLGEAAAS was 2.71
